System: SEM cells
Assay: cell viability relative to DMSO control; higher = less cytotoxic
Conditions: RPMI 5 mM glucose + 10% dialyzed FBS; 48 h; 46.1 µM
Entries whose cell viability is below 90% take Criterion met; entries at or above 90% take Criterion not met.

Prompt: # check: cell viability < 90% for `CCOC(=O)[C@@H](N)Cc1ccc(-c2cc(O[C@H](c3ccc(Cl)cc3-n3ccc(C)n3)C(F)(F)F)nc(N)n2)cc1.O=C(O)CNC(=O)c1ccccc1`
Response: Criterion met

Prompt: Then what about the compound `CNc1nc(Nc2ccc(C(=O)N3CCOCC3)cc2OC)ncc1Cl` ?
Response: Criterion met

Prompt: Then what about the compound `O=c1[nH]c(=O)n([C@H]2C[C@H](O)[C@@H](CO)O2)cc1/C=C/Br` ?
Response: Criterion met

Prompt: Then what about the compound OC(c1cc(C(F)(F)F)nc2c(C(F)(F)F)cccc12)C1CCCCN1 (stereo not drawn) ?
Response: Criterion met

Prompt: Then what about the compound `CC(C)c1nc(CN(C)C(=O)N[C@H](C(=O)N[C@@H](Cc2ccccc2)C[C@H](O)[C@H](Cc2ccccc2)NC(=O)OCc2cncs2)C(C)C)cs1` ?
Response: Criterion not met

====

System: P12-Ichikawa
Assay: cell viability relative to DMSO control; higher = less cytotoxic
Settings: RPMI 5 mM glucose + 10% dialyzed FBS; 48 h; 1.71 µM
For each record, write down the corresponding cell viability.
Kindly answer with a numeric value in %, unit omitted.

Prompt: May I ask what cell viability has been recorded for `CN[C@@H](C)[C@H]1[C@H](O)C[C@@]2(C)[C@@H]3CC[C@H]4C(C)(C)[C@@H](NC)CC[C@@]45C[C@@]35CC[C@]12C` ?
Response: 92.6

Prompt: Then what about the compound `CN(C)[S+](=O)([O-])c1ccc2c(c1)C(=Cc1cc3c([nH]1)CCCC3)C(=O)N2` ?
Response: 124

Prompt: Then what about the compound COC(=O)C[C@](O)(CCCC(C)(C)O)C(=O)O[C@@H]1C(OC)=CC23CCCN2CCc2cc4c(cc2[C@H]13)OCO4 (some centres undefined) ?
Response: 96

Prompt: Then what about the compound `C[C@H]1COC2=C3N1\C=C(C(O)=O)/C(=O)C3=CC(=C2N4CCN(C)CC4)F` ?
Response: 94.7

====

Test system: P12-Ichikawa
Assay: AUC of viability dose-response curve (% viability x log10 dose units); higher = less sensitive
Settings: RPMI 5 mM glucose + 10% FBS; 48 h
For each record, write down the corresponding AUC of viability dose-response curve.
Give the value as a plain number.

Prompt: May I ask what AUC of viability dose-response curve has been recorded for `NC\1=N\C(=O)N(\C=C1)[C@@H]2O[C@H](CO)[C@@H](O)[C@@H]2O` ?
Response: 25.6

Prompt: Then what about the compound `O=c1[nH]c2ccccc2n1CCCN1CCC(n2c(=O)[nH]c3cc(Cl)ccc32)CC1` ?
Response: 460

Prompt: Then what about the compound `CCCCC(=O)O[C@]1(C(=O)CO)[C@H](C)C[C@H]2[C@@H]3CCC4=CC(=O)C=C[C@]4(C)[C@@]3(F)[C@@H](O)C[C@@]21C` ?
Response: 315

Prompt: Then what about the compound OC(c1cc(C(F)(F)F)nc2c(C(F)(F)F)cccc12)C1CCCCN1 (stereo not drawn) ?
Response: 458

Prompt: Then what about the compound C[C@](Cc1c[nH]c2ccccc12)(NC(=O)OC1C2CC3CC(C2)CC1C3)C(=O)NC[C@H](NC(=O)CCC(=O)O)c1ccccc1 (stereo partly drawn) ?
Response: 461

Prompt: Then what about the compound `OC(=O)C/1=C/C(=O)NC(=O)N1` ?
Response: 457

Prompt: Then what about the compound `Clc1ccc(-c2nc3sccn3c2/C=N/OCc2ccc(Cl)c(Cl)c2)cc1` ?
Response: 463

Prompt: Then what about the compound `O=c1[nH]c(=O)n([C@H]2C[C@H](O)[C@@H](CO)O2)cc1/C=C/Br` ?
Response: 472

Prompt: Then what about the compound `N[S+]([O-])(=O)C1=C(Cl)C=C2\N=C/N[S+]([O-])(=O)C2=C1` ?
Response: 456

Prompt: Then what about the compound `N#CCNC(=O)c1ccc(-c2ccnc(Nc3ccc(N4CCOCC4)cc3)n2)cc1` ?
Response: 442

Prompt: Then what about the compound `O=C1NC(=O)/C(=C/c2ccc3nccc(-c4ccncc4)c3c2)S1` ?
Response: 308

Prompt: Then what about the compound `C[C@@H](Oc1cc(-c2cnn(C3CCNCC3)c2)cnc1N)c1c(Cl)ccc(F)c1Cl` ?
Response: 415

Prompt: Then what about the compound `CC[C@H](NC1=C2N=C[NH]C2=NC=N1)C/3=N/C4=C(C(=CC=C4)F)C(=O)N3C5=CC=CC=C5` ?
Response: 395
